Target: hMC4-R (Homo sapiens)
Construct: expressed in transfected cells
Sequence (P32245 whole entry): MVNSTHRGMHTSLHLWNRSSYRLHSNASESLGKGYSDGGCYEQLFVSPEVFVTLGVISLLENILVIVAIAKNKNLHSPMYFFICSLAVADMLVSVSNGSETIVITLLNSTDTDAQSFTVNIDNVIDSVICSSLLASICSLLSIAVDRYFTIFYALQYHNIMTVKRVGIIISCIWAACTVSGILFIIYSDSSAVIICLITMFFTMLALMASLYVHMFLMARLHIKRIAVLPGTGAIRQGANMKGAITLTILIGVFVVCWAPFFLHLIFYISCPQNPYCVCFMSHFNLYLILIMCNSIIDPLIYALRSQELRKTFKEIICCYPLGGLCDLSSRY
Test: Competitive inhibition binding assay, 125I-NDP-α-MSH, hMC4-R
Settings: 1 μM test compound; 0.4 nM 125I-NDP-α-MSH; hMC4-R membranes; mean of triplicates; results less than 0% reported as 0%
observable: Inhibition at 1 μM MC4-R (%)

{"compound": "CCCCCCC(=O)N[C@@H](Cc1cnc[nH]1)C(=O)N[C@H](Cc1ccccc1)C(=O)N1C[C@H](OCc2ccccc2)C[C@H]1C(=O)NCCCNC(=N)N", "uom": "%", "meas-value": 1}
{"compound": "[2H]N[C@@H](Cc1cnc[nH]1)C(=O)N[C@@H](Cc1ccccc1)C(=O)N1C2CC[C@H](COc3ccc4ccccc4c3)N2C(=O)[C@@H]1CCCCN (some centres unmarked)", "uom": "%", "meas-value": 10}
{"compound": "[2H]N[C@@H](Cc1ccccc1)C(=O)N1C2CC[C@H](COc3ccc4ccccc4c3)N2C(=O)[C@@H]1CCCCN (some centres unmarked)", "uom": "%", "meas-value": 13}
{"compound": "C[C@@H]1CN(C(=O)[C@H](N)Cc2ccc(Cl)cc2)[C@@H](CCCNC(=N)N)CN1CCc1ccc2ccccc2c1", "uom": "%", "meas-value": 43}
{"compound": "[2H]N[C@@H](Cc1ccccc1)C(=O)N1C2CC[C@H](COc3ccccc3)N2C(=O)[C@@H]1CCCCN (some centres unmarked)", "uom": "%", "meas-value": 8}

Source listed as patent US7601753B2.
